system: MCF-7; assay: cells; type: cell-based, human; design: unit not given here
Measured attribute: TGI

1) C[C@]12CC(=O)[C@H]3[C@@H](CCC4=CC(=O)NCC[C@@]43C)[C@@H]1CC[C@@H]2OC(=O)CCOc1ccc(N(CCCl)CCCl)cc1 [Compound 11]
68
2) C[C@]12CC[C@H](OC(=O)CCOc3ccc(N(CCCl)CCCl)cc3)CC1=CC(=O)N[C@@H]1[C@@H]2CC[C@]2(C)C(=O)CC[C@@H]12 [Compound 18]
46
3) C[C@]12CC[C@@H]3c4ccc(OC(=O)CCOc5ccc(N(CCCl)CCCl)cc5)cc4CC[C@H]3[C@@H]1CCC(=O)N2 [Compound 6]
36

* * *

Overview of reported GI50 across a group of compounds:
tested on: MCF-7
Measured attribute: GI50

1. C[C@]12CC[C@H](OC(=O)CCOc3ccc(N(CCCl)CCCl)cc3)CC1=CC(=O)N[C@@H]1[C@@H]2CC[C@]2(C)C(=O)CC[C@@H]12 [Compound 18]
21 µM
2. C[C@]12CC(=O)N[C@H]3[C@@H](CCC4=CC(=O)NCC[C@@]43C)[C@@H]1CC[C@@H]2OC(=O)CCOc1ccc(N(CCCl)CCCl)cc1 [Compound 16]
15 µM
3. C[C@]12CC(=O)[C@H]3[C@@H](CCC4=CC(=O)NCC[C@@]43C)[C@@H]1CC[C@@H]2OC(=O)CCOc1ccc(N(CCCl)CCCl)cc1 [Compound 11]
25 µM
4. C[C@]12CC[C@@H]3c4ccc(OC(=O)CCOc5ccc(N(CCCl)CCCl)cc5)cc4CC[C@H]3[C@@H]1CCC(=O)N2 [Compound 6]
15 µM
5. C[C@]12CC[C@H](OC(=O)Cc3ccc(N(CCCl)CCCl)cc3)C[C@@H]1CC[C@@H]1[C@@H]2CC[C@@]2(C)NC(=O)CC[C@@H]12 [ASE, reference compound]
29 µM
6. C[C@]12CC[C@H]3[C@@H](CCC4=CC(=O)NCC[C@@]43C)[C@@H]1CC[C@@H]2OC(=O)CCOc1ccc(N(CCCl)CCCl)cc1 [Compound 3]
17 µM

* * *

system: PC-3
// boundary case: GI50 equal to 30 µM maps to 0; strictly smaller maps to 1

1) C[C@]12CC(=O)[C@H]3[C@@H](CCC4=CC(=O)NCC[C@@]43C)[C@@H]1CC[C@@H]2OC(=O)CCOc1ccc(N(CCCl)CCCl)cc1
1
2) C[C@]12CC[C@H](OC(=O)Cc3ccc(N(CCCl)CCCl)cc3)C[C@@H]1CC[C@@H]1[C@@H]2CC[C@@]2(C)NC(=O)CC[C@@H]12 [ASE, reference compound]
0
3) C[C@]12CC(=O)N[C@H]3[C@@H](CCC4=CC(=O)NCC[C@@]43C)[C@@H]1CC[C@@H]2OC(=O)CCOc1ccc(N(CCCl)CCCl)cc1
1
4) C[C@]12CC[C@@H]3c4ccc(OC(=O)CCOc5ccc(N(CCCl)CCCl)cc5)cc4CC[C@H]3[C@@H]1CCC(=O)N2
1
5) C[C@]12CC[C@H]3[C@@H](CCC4=CC(=O)NCC[C@@]43C)[C@@H]1CC[C@@H]2OC(=O)CCOc1ccc(N(CCCl)CCCl)cc1
1
6) C[C@]12CC[C@H](OC(=O)CCOc3ccc(N(CCCl)CCCl)cc3)CC1=CC(=O)N[C@@H]1[C@@H]2CC[C@]2(C)C(=O)CC[C@@H]12
1

* * *

tested on: murine P388 lymphocytic leukemia; parameters: species or system mice; details: mouse, in vivo, ip
Marks after values point to notes of the source that are not given here.
Measured attribute: T/C %

1) C[C@]12CC[C@H](OC(=O)CCOc3ccc(N(CCCl)CCCl)cc3)CC1=CC(=O)N[C@@H]1[C@@H]2CC[C@]2(C)C(=O)CC[C@@H]12 [Compound 18]
378* %
2) C[C@]12CC(=O)N[C@H]3[C@@H](CCC4=CC(=O)NCC[C@@]43C)[C@@H]1CC[C@@H]2OC(=O)CCOc1ccc(N(CCCl)CCCl)cc1 [Compound 16]
489* %
3) C[C@]12CC[C@H]3[C@@H](CCC4=CC(=O)NCC[C@@]43C)[C@@H]1CC[C@@H]2OC(=O)CCOc1ccc(N(CCCl)CCCl)cc1 [Compound 3]
433* %

* * *

test system: T-47D; test: cells; type: cell-based, human; conditions: Homo sapiens, T47D, 48 h
Overview of reported GI50 across a group of compounds:
Measured attribute: GI50 (µM)

1) C[C@]12CC(=O)[C@H]3[C@@H](CCC4=CC(=O)NCC[C@@]43C)[C@@H]1CC[C@@H]2OC(=O)CCOc1ccc(N(CCCl)CCCl)cc1
26
2) C[C@]12CC[C@H](OC(=O)CCOc3ccc(N(CCCl)CCCl)cc3)CC1=CC(=O)N[C@@H]1[C@@H]2CC[C@]2(C)C(=O)CC[C@@H]12
14
3) C[C@]12CC[C@@H]3c4ccc(OC(=O)CCOc5ccc(N(CCCl)CCCl)cc5)cc4CC[C@H]3[C@@H]1CCC(=O)N2
10
4) C[C@]12CC(=O)N[C@H]3[C@@H](CCC4=CC(=O)NCC[C@@]43C)[C@@H]1CC[C@@H]2OC(=O)CCOc1ccc(N(CCCl)CCCl)cc1
10
5) C[C@]12CC[C@H](OC(=O)Cc3ccc(N(CCCl)CCCl)cc3)C[C@@H]1CC[C@@H]1[C@@H]2CC[C@@]2(C)NC(=O)CC[C@@H]12 [ASE, reference compound]
22
6) C[C@]12CC[C@H]3[C@@H](CCC4=CC(=O)NCC[C@@]43C)[C@@H]1CC[C@@H]2OC(=O)CCOc1ccc(N(CCCl)CCCl)cc1
10

* * *

test system: SKOV-3
// boundary case: GI50 equal to 20 µM maps to NO; strictly smaller maps to YES

1) C[C@]12CC[C@H](OC(=O)CCOc3ccc(N(CCCl)CCCl)cc3)CC1=CC(=O)N[C@@H]1[C@@H]2CC[C@]2(C)C(=O)CC[C@@H]12
NO
2) C[C@]12CC[C@@H]3c4ccc(OC(=O)CCOc5ccc(N(CCCl)CCCl)cc5)cc4CC[C@H]3[C@@H]1CCC(=O)N2
YES
3) C[C@]12CC[C@H]3[C@@H](CCC4=CC(=O)NCC[C@@]43C)[C@@H]1CC[C@@H]2OC(=O)CCOc1ccc(N(CCCl)CCCl)cc1
YES
4) C[C@]12CC[C@H](OC(=O)Cc3ccc(N(CCCl)CCCl)cc3)C[C@@H]1CC[C@@H]1[C@@H]2CC[C@@]2(C)NC(=O)CC[C@@H]12 [ASE, reference compound]
NO

* * *

tested on: C57Bl/6 mice; conditions: female, C57Bl/6, mouse, in vivo, ip
Measured attribute: LD10

1) C[C@]12CC[C@H]3[C@@H](CCC4=CC(=O)NCC[C@@]43C)[C@@H]1CC[C@@H]2OC(=O)CCOc1ccc(N(CCCl)CCCl)cc1 [Compound 3]
130 mg/kg
2) C[C@]12CC[C@@H]3c4ccc(OC(=O)CCOc5ccc(N(CCCl)CCCl)cc5)cc4CC[C@H]3[C@@H]1CCC(=O)N2 [Compound 6]
80 mg/kg
3) C[C@]12CC(=O)N[C@H]3[C@@H](CCC4=CC(=O)NCC[C@@]43C)[C@@H]1CC[C@@H]2OC(=O)CCOc1ccc(N(CCCl)CCCl)cc1 [Compound 16]
140 mg/kg
